Measured values drawn from ChEMBL document CHEMBL5046255 for this set.

Each entry below carries its recorded microsomal CLint.
Test: Metabolic stability in human liver microsomes assessed as intrinsic clearance incubated for 10 mins by LC-MS/MS analysis
Format: ADME, Microsome
Details: read-out: CLH
test_readout: microsomal CLint

1) Cc1cc(Nc2nc(SCc3ccc(C(=O)Nc4ccc(F)cc4N)cc3)nn3cccc23)n[nH]1: 20.9 µL/min/mg
2) Nc1cc(F)ccc1NC(=O)c1ccc(CNC(=O)/C=C/c2cccnc2)cc1: 4.18 µL/min/mg

====

Assay: Metabolic stability in rat plasma assessed as parent compound remaining at 100 uM measured after 2 hrs by LC-MS/MS analysis
Type: ADME, cell-free
Details: read-out: Stability
Each entry below carries its recorded remaining at 2 h, 100 µM.
test_readout: remaining at 2 h, 100 µM (%)

1) Cc1cc(Nc2nc(SCc3ccc(C(=O)Nc4ccc(F)cc4N)cc3)nn3cccc23)n[nH]1: 105
2) Nc1cc(F)ccc1NC(=O)c1ccc(CNC(=O)/C=C/c2cccnc2)cc1: 82.1

====

Experiment: Metabolic stability in human plasma assessed as parent compound remaining at 100 uM measured after 2 hrs by LC-MS/MS analysis
Assay type: ADME, cell-free
Details: read-out: Stability
Each entry below carries its recorded remaining at 2 h, 100 µM.
test_readout: remaining at 2 h, 100 µM (%)

1) Cc1cc(Nc2nc(SCc3ccc(C(=O)Nc4ccc(F)cc4N)cc3)nn3cccc23)n[nH]1: 79.1
2) Nc1cc(F)ccc1NC(=O)c1ccc(CNC(=O)/C=C/c2cccnc2)cc1: 109

====

Test: Metabolic stability in monkey plasma assessed as parent compound remaining at 100 uM measured after 2 hrs by LC-MS/MS analysis
Type: ADME, cell-free, Macaca mulatta
Details: rhesus monkey, read-out: Stability
Each entry below carries its recorded remaining at 2 h, 100 µM.
test_readout: remaining at 2 h, 100 µM (%)

1) Nc1cc(F)ccc1NC(=O)c1ccc(CNC(=O)/C=C/c2cccnc2)cc1 [TUCIDINOSTAT]: 102
2) Cc1cc(Nc2nc(SCc3ccc(C(=O)Nc4ccc(F)cc4N)cc3)nn3cccc23)n[nH]1: 82.4

====

System: HCT-116
Test: Antiproliferative activity against human HCT-116 cells assessed as cell viability at 1 uM incubated for 72 hrs by luminescence assay
Assay type: functional, cell-based
Conditions: HCT-116, 72 h
Doc: threshold 1 µM (exclusive). Items with IC50 beneath it return label 1; others return label 0.

1. Cc1cc(Nc2nc(SCc3ccc(C(=O)Nc4ccccc4N)cc3)nn3cccc23)n[nH]1: label 1
2. Nc1cc(F)ccc1NC(=O)c1ccc(CSc2nc(Nc3cc[nH]n3)c3cccn3n2)cc1: label 1
3. Nc1ccccc1NC(=O)c1ccc(CSc2nc(N3CCOCC3)c3cccn3n2)cc1: label 0
4. Nc1cc(F)ccc1NC(=O)c1ccc(CNC(=O)/C=C/c2cccnc2)cc1: label 0
5. Cc1cccnc1Nc1nc(SCc2ccc(C(=O)Nc3ccccc3N)cc2)nn2cccc12: label 0
6. Cc1cccnc1Nc1nc(SCc2ccc(C(=O)Nc3ccc(F)cc3N)cc2)nn2cccc12: label 1
7. Nc1cc(F)ccc1NC(=O)c1ccc(CSc2nc(N3CCOCC3)c3cccn3n2)cc1: label 1
8. COc1ccc(CNc2nc(SCc3ccc(C(=O)Nc4ccccc4N)cc3)nn3cccc23)cc1: label 1
9. Cc1cc(Nc2nc(SCc3ccc(C(=O)Nc4ccc(F)cc4N)cc3)nn3cccc23)n[nH]1: label 1
